These measurements were taken from ChEMBL document CHEMBL4190247.

system: GABA-A receptor; alpha-1/beta-2/gamma-2 (Homo sapiens) (UniProt P14867+P47870+P18507)
assayProcedure: Modulation of human alpha1beta2gamma2S GABAA receptor expressed in Xenopus laevis oocytes assessed as increase in GABA-induced current at 1 mM at -60 mV holding potential by two-electrode voltage clamp electrophysiology method
Type: cell-based
The source made the active and inactive calls. No cut-off for these calls is given here.
testReadout: Activity

>  <compound>
CCOC(=O)C1=C(C)NC(=S)NC1c1ccc(O)c(O)c1 (configuration not stated)

>  <observedMeasurement>
inactive

$$$$
>  <compound>
CCOC(=O)C1=C(C)N(C)C(=S)NC1c1cccc(O)c1 (configuration not stated)

>  <observedMeasurement>
inactive

$$$$
>  <compound>
CCOC(=O)C1=C(C)NC(=S)NC1c1cccc(O)c1 (configuration not stated)

>  <observedMeasurement>
inactive

$$$$
>  <compound>
COC(=O)C1=C(C)NC(=O)NC1c1ccccc1 (configuration not stated)

>  <observedMeasurement>
inactive

$$$$
>  <compound>
CCOC(=O)C1=C(CC)NC(=S)NC1c1cccc(O)c1 (configuration not stated)

>  <observedMeasurement>
inactive

$$$$
>  <compound>
CCOC(=O)C1=C(C)NC(=O)NC1c1cccc(O)c1 (configuration not stated)

>  <observedMeasurement>
inactive

$$$$

Kindly consider the entry below.
[ask] Please look at this compound and report its Activity: COC(=O)C1=C(C)NC(=S)NC1c1cccc(O)c1 (configuration not stated)
[reply] inactive

---

Species on record: Rattus norvegicus
assayProcedure: Modulation of [3H]NCS-382 binding to alpha4betadelta GABAA receptor in rat cortical membranes assessed as [3H]NCS-382 binding at 100 uM after 1 hr by TopCount scintillation counting method relative to control
Format: cell membranes
The source made the active and inactive calls. The calls are words filed in the database; no cut-off is given here.
testReadout: %max

Sample records with %max:
>  <compound>
CCOC(=O)C1=C(C)NC(=S)NC1c1cccc(Cl)c1 (stereo unspecified)

>  <observedMeasurement>
inactive

$$$$
>  <compound>
CCOC(=O)C1=C(C)NC(=S)NC1c1cccc(C)c1 (stereo unspecified)

>  <observedMeasurement>
inactive

$$$$
>  <compound>
CCOC(=O)C1=C(C)N(C)C(=S)N(C)C1c1cccc(O)c1 (stereo unspecified)

>  <observedMeasurement>
inactive

$$$$
>  <compound>
COC(=O)C1=C(C)NC(=S)NC1c1cccc(O)c1 (stereo unspecified)

>  <observedMeasurement>
194%

$$$$
>  <compound>
CCOC(=O)C1=C(C)NC(=S)NC1c1cccnc1 (stereo unspecified)

>  <observedMeasurement>
inactive

$$$$

Kindly consider the entry below.
[ask] Please look at this compound and report its %max: CC1=C(C(=O)O)C(c2cccc(O)c2)NC(=S)N1 (stereo unspecified)
[reply] inactive

---

Species: Rattus norvegicus
assayProcedure: Modulation of [3H]NCS-382 binding to alpha4betadelta GABAA receptor in rat cortical membranes assessed as [3H]NCS-382 binding at 100 uM after 1 hr by TopCount scintillation counting method relative to control
Type: cell membranes
testReadout: %max

>  <molecule>
CCOC(=O)C1=C(C)NC(=S)NC1c1cc(O)cc(O)c1 (stereo not drawn)

>  <observedMeasurement>
247%

$$$$

Kindly consider the entry below.
[ask] Please look at this molecule and report its %max: CC(=O)C1=C(C)NC(=S)NC1c1cccc(O)c1 (stereo not drawn)
[reply] 130%
